experiment: qHTS RealTime-Glo MT Cell Viability Assay in HepG2 cells - 24 hour (AID 1224867); details: RealTime-Glo luminescence; series mostly up to 76.8 µM; also: nearly all actives have a fitted effect of over 50% in size
Results filed as inconclusive are left out. The source made the active and inactive calls. Calls follow the shape of the dose curve; as a rule, active = well fitted cell-killing curve with a large enough effect in the repeat runs; inconclusive = weak or mixed curves; inactive = flat fitted curve, though single readings scatter.
readoutLabel: activity change, negative = cytotoxicity

Examples from the recorded data:
C=CCSCC1Nc2cc(Cl)c(S(N)(=O)=O)cc2S(=O)(=O)N1 (configuration not stated) ... inactive
Nc1cc(C(Cl)=C(Cl)Cl)c(S(N)(=O)=O)cc1S(N)(=O)=O ... inactive
CCCCOCC(C)OCC(C)O (configuration not stated) ... inactive
NC(=O)c1ncn([C@@H]2O[C@H](CO)[C@@H](O)[C@H]2O)c1N ... inactive
CC1=CC(C)C(C=O)C(C)C1 (configuration not stated) ... inactive
CCCCCCCCCCCCCCC ... inactive

Input line: Name the recorded activity change, negative = cytotoxicity of the molecule listed here: CCC(C)OC(=O)N1CCCCC1CCO (configuration not stated)
Output line: inactive

Input line: Name the recorded activity change, negative = cytotoxicity of the molecule listed here: OCCN1C[C@H](O)[C@@H](O)[C@H](O)[C@H]1CO
Output line: inactive

Input line: Name the recorded activity change, negative = cytotoxicity of the molecule listed here: Cc1c(C)n(CCN(C)C)c2ccc(C(=O)OCCN(C)C)cc12
Output line: inactive

Input line: Name the recorded activity change, negative = cytotoxicity of the molecule listed here: CCOC(=O)Nc1ccc2c(c1)N(C(=O)CCN1CCOCC1)c1ccccc1S2
Output line: inactive

Input line: Name the recorded activity change, negative = cytotoxicity of the molecule listed here: NC(=O)c1ncn([C@@H]2O[C@H](CO)[C@@H](O)[C@H]2O)c1O
Output line: inactive

Input line: Name the recorded activity change, negative = cytotoxicity of the molecule listed here: CN(C)CCn1nnnc1SCC1=C(C(=O)O)N2C(=O)[C@@H](NC(=O)Cc3csc(N)n3)[C@H]2SC1
Output line: inactive
